B1: FBXO39 (parent)
chain: RVFKARIYTNRYETNEEDKTLQEI

variants of: B1; assay: protein stability index of a GFP-peptide fusion (GPS, HEK-293T) (PSI 1-6); higher = more stable; conditions: c terminus: a fixed tail appended;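 note: lentivirally expressed fusions sorted by FACS into six bins by GFP to DsRed ratio, PSI derived from sequencing read proportions per bin multiplied by bin number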
Decision: protein stability index compared against 3; not below it gives Criterion met, below it gives Criterion not met.

Below are worked cases with known answers.
K19G
Criterion met
N10T
Criterion not met
V2P
Criterion met
T14A
Criterion not met
T20A
Criterion not met
N15Q
Criterion not met
R11L
Criterion not met
R6E
Criterion met

Turning to the following variant.
Query: Item E13V with protein stability index of 3 or above?
Result: Criterion not met
